- test-method-notes: label from the status in PepcDB records
test-readout: protein production

{"sequence-entry": "MAKAVRIGAEGYKLKLDGAVQEIDGRSVVLVDVDSITPLMFGGSMKEKAKLLDAKFLRKYYEENKDFFFLSTREEKKMFVTLQLAREYAELVDDQFLRGFFEKALESAQKAF", "protein production": "not failed"}
{"sequence-entry": "MMIDPELRPAFLPAGKLRAAINLGNPILAGTDAAGQAVGVSVDLAREFARRLNAGIELRVFDTAGQSVDAVTREEADIGFFAIDPARGAGIAFTGPYVLIEGAYLVRDDSPLQANEDVDRAGKRVTVGKGSAYDLHLTRALQHLEHHHHHH", "protein production": "not failed"}
{"sequence-entry": "MAINLNDYKRVAQNLKVNKKNMREFLFDFRVNGKRYRKVETLIERTGWNKKDYEREAQLLLIDYRKKVEANTGNLQITSNTRLNELWELYFQTLDKSTSWTFTKESFYNRYLKEPLGKKKLDSIQEHHIMAIIRHLQAEGMATRTVNTTLEILRPLFDFAIKNKALRDNPTRFIVLKKDNTKKIVINGAEMFKRIFEGINDYYSSQPFYRALFLFGFTGRRKGEILKLKWENIDLDNNYYWIEDTKNNEKQKYELPHFIKEALLQIQDTHTGLVFKSPVTGRMLENTDGQMNKLKKHLNMPELTLHYMRNVLVSALAERGTEAITLSGMLGHRDATTINKYLSLSYHNSSKKGNATMGQIIDAEVVE", "protein production": "failed"}
{"sequence-entry": "MRILFVGPPLYGLLYPVLSLAQAFRVNGHEVLIASGGKFAQKAAEAGLVVFDAAPGFDSEAGYRRQEALRKENNIGTKMGNFSFFSEEMTDPLVAFAGQWRPDLIVYPPLGVVGPLIAAKYDIPVVMQTVGFGHTPWHIKGVTKSLSNAYRRHGVSAPPRDLAWIDVTPPSMSILQNDGEPVISMQYVPYNGGAVWEEWWERTPDRKRLLVSLGTVKPMVDGLDLISWVMDSAGEVDAEIILHLPANARSDLRSLPPNVRLVDWLPMGVFLNGADGFIHHGGAGNTLTALHAGIPQIVFGQGADRPVNARAVVERGCGIIPGKSGLTSSMINTFLGNRALREASQEVAAEMAAQPCPTEVAKKLIAMLQHG", "protein production": "failed"}
{"sequence-entry": "MKTKSWIASLFYSSLCFSSSYAINLHQITITDPIMGSRTITYEQVGEFAVVEGDILIGKAENLKNQGAVITPKVGGSRWPNGVIPYEIAENLPFINKLAILQAIDHWQKNTNLEFVELTSKNRYDYRDYISFIPAEGTTCSSYVGRQGGKQEINLAPRCTTMNTVHEIGHALGMWHEQSRSDRNQYIRIVWENIDEEHKFNFDQHLTDGKDFGEYDYGSIMHYGRFAFSKNGQPTIIPLVDGVEIGQRTHLSEKDIAAVKAMYPET", "protein production": "failed"}

Kindly consider the entry below.
Return value of protein production for input `MEDIEYLDEYKDLVLPGIKSSAPTASSAGVPRQRRISSDSSNSSSIDADIFQKLFHGKYLDDELLKEGSGSKSQDRRRRPPSPSSSDESNDALEALFCGK` , no commentary. failed

----------
- test-method-notes: label from the status in PepcDB records
test-readout: protein production

Field: example entries. Status: answers known.
{"sequence-entry": "ITARRRGELRRDALLKMGDQLRSLTTIQDMTGIASEIVGRALGAVRAGFGRVDPGEESVIIENDWSAAGYASLAGWHSLSDHPSFETANATKQPVVVADVAAAPPDNLSSQAKDDPGIGSLAVIPIENHDGSTALFFVHVAEPRDWSDDDLAFLRNVGDRLAAGVGRLDAEALQHTLNLELSHRMKNTLAMVMAIARQTLRSIP", "protein production": "failed"}
{"sequence-entry": "MTIAVTGSIATDHLMRFPGRFSEQLLPEHLHKVSLSFLVDDLVMHRGGVAGNMAFAIGVLGGEVALVGAAGADFADYRDWLKARGVNCDHVLISETAHTARFTCTTDVDMAQIASFYPGAMSEARNIKLADVVSAIGKPELVIIGANDPEAMFLHTEECRKLGLAFAADPSQQLARLSGEEIRRLVNGAAYLFTNDYEWDLLLSKTGWSEADVMAQIDLRVTTLGPKGVDLVEPDGTTIHVGVVPETSQTDPTGVGDAFRAGFLTGRSAGLGLERSAQLGSLVAVLVLESTGTQEWQWDYEAAASRLAGAYGEHAAAEIVAVLA", "protein production": "not failed"}
{"sequence-entry": "MSRRTTLRRVGLLVLGVNLLLVLLKAGVWLTTGSFAVQSEAVNSAADTAYSLVIVAGLYLTTRPPDFEHPHGHERIEPFVSLFVAAGIFAAGGFVLWNAGTALLTGNISVTQGPAAVLVLAFSAVAKYALYRYCLRAGTDRNSPALIATAKDNRNDILTAGAALVGVGGAMAGYPIADPLAALVVAIGIIYTGIEVVQENVTYLVGGAPPEDLRREILRRALDHPKVSGAHDVIAHYVGPEIDVSLHIEVEGDLTLFEAHDIETAVIKSIEELPEVDDAFIHVDPKELGEWKDDEEVERLADLE", "protein production": "failed"}
{"sequence-entry": "MIYQPDENRYHTMEYRRCGRSGVKLPAISLGLWHNFGDTTRVENSRALLQRAFDLGITHFDLANNYGPPPGSAECNFGRILQEDFLPWRDELIISTKAGYTMWDGPYGDWGSRKYLIASLDQSLKRMGLEYVDIFYHHRPDPETPLKETMKALDHLVRHGKALYVGISNYPADLARQAIDILEDLGTPCLIHQPKYSLFERWVEDGLLALLQEKGVGSIAFSPLAGGQLTDRYLNGIPEDSRAASGSRFLKPEQITADKLEKVRRLNELAARRGQKLSQMALAWVLRNDNVTSVLIGASKPSQIEDAVGMLANRRFSAAECAEIDAILEGRF", "protein production": "failed"}
{"sequence-entry": "MSLTTSKTRKSGVAMTEKLELDPARTAIVLIEYQNEFTSDGGVLHGAVADVMQHTGMLANTVAVVDAARQAGVPIMHAPITFAEGYGELTRHPYGILKGVVDGKAFVKGTWGAAIVDELAPVNGDIVIEGKRGLDTFASTNLDFILRSKGVDTIVLGGFLTNCCVESTMRTGYERGFRVITLTDCVAATSQEEHNNAISYDFPMFSVPMTSADVIAALEGHHHHHH", "protein production": "not failed"}

Given `MDFPQHSQHVLEQLNQQRQLGLLCDCTFVVDGVHFKAHKAVLAACSEYFKMLFVDQKDVVHLDISNAAGLGQVLEFMYTAKLSLSPENVDDVLAVATFLQMQDIITACHALKSLAEPATSPGGNAEALATEGGDKRAKEEKVATSTLSRLEQAGRSTPIGPSRDLKEER` , respond with its protein production. failed

----------
- test-method-notes: label from the status in PepcDB records
test-readout: protein production

Below, each entry is followed by its recorded protein production result.
{"sequence-entry": "MSLAKPIEAHTVSPVNPNAQQTTKTVMNWLAHLPNRTENRVLSGAFGGYSHDTFSMAEADRIRSATGQSPAIYGCDYARGWLETANIEDSIDVSCNGDLMSYWKNGGIPQISLHLANPAFQSGHFKTPITNDQYKKILDSSTVEGKRLNAMLSKIADGLQELENQGVPVLFRPLHEMNGEWFWWGLTSYNQKDNERISLYKQLYKKIYHYMTDTRGLDHLIWVYSPDANRDFKTDFYPGASYVDIVGLDAYFQDAYSINGYDQLTALNKPFAFTEVGPQTANGSFDYSLFINAIKQKYPKTIYFLAWNDEWSAAVNKGASALYHDSWTLNKGEIWNGDSLTPIVEEGHHHHHH", "protein production": "not failed"}
{"sequence-entry": "MMALTMDFSTQLLEHQVTAILLLDDQRQIHYANPAAEQLFSQSAQRMAQHAFDDLFHSPQFDLSTLMLPLNTGQSVTDSDVRIMIDEQPLYIELTSSPVAINKSLYLLVEIRQIE", "protein production": "failed"}
{"sequence-entry": "MRLVADSACDIKELRGMVFKAVPLTISTDNEEFCDDGQLDIHRMLDILEKHKGRSYTACPGIDAWLEAFGDDDEIFVVTITAGMSGTYNSAMAARAVYLEEHPQAKVRVIDSKSTGPQMRIILEQLQQMIEEGKKFEEIDGAIDAYMQKTRLFCSLKSLHNLAQNGRVSKVVASAAEVLGISVIGTASSHGTLEAIGKCRGDKKLLVKLQALLDDAGYEGGKLRICHVENEALADKIADMIKQAYGTTDVCVYKAGGLCSYYAERGGIILSCETK", "protein production": "not failed"}
{"sequence-entry": "MSASAHIAQPDTRQQSRSDTPQAVAALAGRVLLSAIFLLSGVSKLAAPAMMIGYIGSVGLPFPQLALALAVIVEIGGGLALVAGWRTRTVAALLALFSVVTALAFHNALGDQNQFIHFFKNLAMAGGLLQVVAFGAGRFSLDARRR", "protein production": "failed"}
{"sequence-entry": "MASKSGSGGLREPPNEQAVLNMYEGKRSELSQIYSNITDLEMQVSEHSLVINAIQPLDQSRKCFRMIGGVLVERTIKEVLPAVQRNKDGLEEVVRKLYETLEKKKKDLTEFEAKYKIRITKQEDNKEGGNKKEGNAQGVLVGAASSSQ", "protein production": "failed"}

Consider the sequence `MSLSGVSHVSLTVRDLDISCRWYTEILDWKELVRGRGDTTSFAHGVLPGGLSIVLREHDGGGTDLFDETRPGLDHLSFSVESMTDLDVLEERLAKAGAAFTPTQELPFGWILAFRDADNIALEAMLGREGHHHHHH` and give its recorded protein production. not failed

Complete the entry with protein production for `MEIKGESMQKSKFRRICVFCGSSQGKKSSYQDAAVDLGNELVSRNIDLVYGGGSIGLMGLVSQAVHDGGRHLTGETVGEVRAVADMHQRKAEMAKHSDAFIALPGGYGTLEELLEVITWAQLGIHDKPVGLLNVDGYYNSLLSFIDKAVEEGFISPTAREIIVSAPTAKELVKKLEVN` not failed

Indicate the recorded protein production value for this sequence: `MFWDNLTVAAKFFIEISVELTILFIGITFLVGLSQEYVPDETIKRALGGRNKVIGSILGAGFGAITPFCSCSTIPLLLGMLKAGAPFAAAMAFLFSSPLLNPVIISLFVILLGWKVTALYFVVVFMSTIAIGLLLDWLGFSNQIKPVAVVRNRCDCEQDTNAKSRIQRSAVFAFSLFRQLMPYLLLGAGIGAFIHGFVPTEVITRVAGPSNPLAVPVAAIIGVPIYIRAETMIPIGLALIKKGMSVGAVLALIIGGAGASIPELTLLSSIFKKRLLTAFVITVFSIAVIAGYLANLLTL` failed

Let me know recorded protein production for `MSGPERLLTRAPTHRPERPRLTLVSRRVMRTIGWLLLLIGGLAGGLSSAAGQPSAPPDTIRGDAVAPSPAPASGDLAGQGGALEATPLFYVAEDAATLHNRSGLNAPVTRLAMRTPVRRLSCEADWCRVRTDGGTTGYVAADALSNVWIRVSKRKRRVYVYRGAELAHAFEADMAYNAFADKKRNGGKTRPDHWRTPEGTFYVVHKNPQSEFYKALVLNYPKVEDARRGLDAGLISRAQYEAIRQAQQEHRMPPMGTDLGGWIEIHGDGTGDATAWTQGCVAIRNGAMDVIWEQVRVGTPVLIE` , thanks. failed

State its protein production for this sequence: `MLKKLLLVSTVLLLSACSSRQYSESSLTQSKIDIYEQTQNYVALSDLYKAELKKEDSEEIREALAAALLHLEDPESALFYLKPNIENGASFQSYYLQASALGDLGKYPQAIKAALLSLEENPDNPETENLLGILYGHEYQYEKSRRYFQKAQLHFYDSNTIANNLAVLDIAEGNYKRAAQRLLPVYRSGQANEQVMANLILSMAKEQNLEFIQAVLGDKHTKKEIERIYQSLQRFNSLDIDTKKSV` failed

Give reported protein production value for `MAAVSPAAAARSAAAAVRDGGEMVRRMTPQDLDRIAQAVAEAEKTTAGEIFCVLTPEVSDYRETPLVWAAASALVLPAGALLAGFRPEMLTRLFGGWSVGHQAAHDGAILSALSTYIVLQLVVFVVAALVVSIPPVRRALTPGALKTARVKRAAMEQFLSHGLHVTRDRTGVLIFAALAEHRVEVIADEGIYKAAPNAVWNEVVADLVAGLKRGKIADGFVAAVARTGGILAAHVPPRGDDRNELSDGLTILPRR` failed

Answer with the recorded protein production of `MTATAQQLEYLKNSIKSIQDYPKPGILFRDVTSLLEDPKAYALSIDLLVERYKNAGITKVVGTEARGFLFGAPVALGLGVGFVPVRKPGKLPRETISETYDLEYGTDQLEIHVDAIKPGDKVLVVDDLLATGGTIEATVKLIRRLGGEVADAAFIINLFDLGGEQRLEKQGITSYSLVPFPGH` only. not failed

Annotate the sequence `MSRDRLYTWAGLWRSPSSSWEALRLEDDQAESQLRAPDERSGLPYQLDYRLRWDADWHLREAVFHVESETGVRKLHLLADGRGHWQDGDGEALPAFDGCLDIDIWPSPFTNTFPIRRLGLADGQRAEIRALYIEAPALEPRSMRQAYTRLDASHYLYENLEGSAFKAVLLVDEQGLVIDYPGLFQRL` with its measured protein production. not failed
